test: in vitro; conditions: human, uninfected MT-4 cells
PARAMETER_MEASURED: CC50 at 5 days (µM)
The answer is to be given in µM; state only the numeric part.

Looking for the measured CC50 at 5 days of CC1=NO[C@@]2(CC[C@H](C)N3C[C@H]2n2cc(C(=O)NCc4ccc(F)cc4F)c(=O)c(OCOC(=O)OC[C@H](C)OP(=O)(O)O)c2C3=O)C1 , can you help?
13.7

Proceed to COC1=NO[C@@]2(CC[C@H](C)N3C[C@H]2n2cc(C(=O)NCc4ccc(F)cc4F)c(=O)c(OCOC(=O)O[C@@H](C)COP(=O)(O)O)c2C3=O)C1
17.1

Proceed to COC1=NO[C@@]2(CC[C@H](C)N3C[C@H]2n2cc(C(=O)NCc4ccc(F)cc4F)c(=O)c(OCOC(=O)OC[C@@H](C)OP(=O)(O)O)c2C3=O)C1
15.2

Proceed to CC[C@H](COC(=O)OCOc1c2n(cc(C(=O)NCc3ccc(F)cc3F)c1=O)[C@@H]1CN(C2=O)[C@@H](C)CC[C@]12CC(OC)=NO2)OP(=O)(O)O
14.1

Proceed to CC1=NO[C@@]2(CC[C@H](C)N3C[C@H]2n2cc(C(=O)NCc4ccc(F)cc4F)c(=O)c(OCOC(=O)OCC(C)(C)N(C)C(=O)OCOP(=O)(O)O)c2C3=O)C1
9.33
